Target: Alpha-2B adrenergic receptor (Homo sapiens)
Sequence (P18089 whole entry): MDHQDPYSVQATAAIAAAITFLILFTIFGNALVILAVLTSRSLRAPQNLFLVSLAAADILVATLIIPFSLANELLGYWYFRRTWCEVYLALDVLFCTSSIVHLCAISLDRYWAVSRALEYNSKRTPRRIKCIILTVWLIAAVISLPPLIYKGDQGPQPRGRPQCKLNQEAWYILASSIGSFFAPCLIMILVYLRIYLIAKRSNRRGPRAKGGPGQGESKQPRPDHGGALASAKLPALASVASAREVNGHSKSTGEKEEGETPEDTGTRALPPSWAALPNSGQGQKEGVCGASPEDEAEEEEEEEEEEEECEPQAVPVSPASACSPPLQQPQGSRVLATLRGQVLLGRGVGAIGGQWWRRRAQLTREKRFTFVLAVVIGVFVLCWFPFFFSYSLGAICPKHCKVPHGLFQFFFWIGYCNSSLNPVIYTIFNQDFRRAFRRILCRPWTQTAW
pKi: −log10 of the molar value.
Literature roundup of Alpha-2B adrenergic receptor (Homo sapiens) data, read-out pKi.
observed property: pKi

Answered cases to consult:
# compound, value measured
records = [
    ("CC(C)(C)OC(=O)N1CCCC1CNC1CCC(c2cc(F)ccc2F)(S(=O)(=O)c2ccc(Cl)cc2)CC1 (stereo not given)", 6.06),
    ("CO/C(O)=C1\\C(C)=NC(C)=C(C(=O)NCCCN2CCC(c3ccccc3)(c3ccccc3)CC2)C1c1ccc(C)cc1 (stereo not given)", 6.04),
    ("c1ccc2c(c1)C[C@]1(c3cnc[nH]3)C[C@H]21 (stereo in doubt; (+)-1)", 9.56),
    ("CO/C(O)=C1\\C(C)=NC(C)=C(C(=O)NCCCN2CCC(c3ccccc3)CC2)C1c1ccc(Cl)c([N+](=O)[O-])c1 (stereo not given)", 7.04),
    ("CO/C(O)=C1\\C(C)=NC(C)=C(C(=O)OCCCN2CCC(c3ccccc3)(c3ccccc3)CC2)C1c1ccc([N+](=O)[O-])cc1 (stereo not given)", 6.24),
    ("COc1cc2c(cc1OC)CN(Cc1ccc(OC)c3oc(-c4ccccc4C(F)(F)F)cc13)CC2", 6.02),
]

[a] CC1=C(C(=O)O)C(c2ccc3c(c2)OCO3)C(C(=O)NCCCN2CCC(c3ccccc3)(c3ccccc3)CC2)=C(C)N1 (stereo not given)
[b] COc1cc2c(cc1OC)C1=NO[C@@H](CN3CCN(Cc4ccc5ccccc5c4)CC3)[C@@H]1CO2 (stereo in doubt; (+)15h)
Between a and b , which one has the lower reported pKi value? In your reply, give the label of the chosen option.
a

[I] CO/C(O)=C1\C(C)=NC(C)=C(C(=O)NCCCN2CCC(c3ccccc3)(c3ccccc3)CC2)C1c1ccc2ccccc2c1 (stereo not given)
[II] CC[C@H]1[C@@H]2c3ccccc3C[C@]12c1c[nH]cn1
[III] c1ccc2c(c1)[C@H]1C[C@@]1(c1c[nH]cn1)C21CC1 (stereo in doubt; (+)-10)
[IV] COc1cc(CCN(C)C)c2c(c1O)SC(CCNC(=N)N)(C1=NCCc3cc(O)c(O)cc31)S2 (stereo not given)
[V] CO/C(O)=C1\C(C)=NC(C)=C(C(=O)N(C)CCCN2CCC(c3ccccc3)(c3ccccc3)CC2)C1c1ccc([N+](=O)[O-])cc1 (stereo not given)
Rank descending by pKi. Would you mind listing the labels in the order asked for?
II, III, V, I, IV

[1] O=C(CCCNC(=O)[C@@H]1C2C[C@H]3c4[nH]c5ccccc5c4CCN3C[C@@H]2CC[C@@H]1O)OCc1ccccc1 (stereo not given in full)
[2] Cc1cccc(-c2ccccc2OC(C)C2=NCCN2)c1 (stereo not given)
Pick the one with the larger pKi: 1 vs 2 In your reply, give the label of the chosen option.
2

[P] CO/C(O)=C1\C(C)=NC(C)=C(C(=O)NCCCN2CCC(c3ccccc3)(c3ccccc3)CC2)C1c1ccc(Cl)c(Cl)c1 (stereo not given)
[Q] c1ccc(C2(c3ccccc3)COCC(C3=NCCN3)O2)cc1 (stereo not given)
[R] c1ccc(CCC[C@H]2C3CCC(C3)[C@H]2NC2=NCCO2)cc1 (stereo not given in full)
[S] COc1cc2c(cc1OC)CN(Cc1ccc(OC)c3oc(-c4ccccn4)cc13)CC2
[T] CC1(C)C2c3ccccc3C[C@@]21c1c[nH]cn1 (single isomer, unassigned)
Rank descending by pKi. Would you mind listing the labels in the order asked for?
T, R, S, P, Q

[a] CO/C(O)=C1\C(C)=NC(C)=C(C(=O)NCCCN2CCC(c3ccccc3)(c3ccccc3)CC2)C1c1ccc(C#N)cc1 (stereo not given)
[b] COc1ccccc1N1CCN(C[C@H]2CN=C3c4ccccc4N=C(SC)N32)CC1
[c] C#Cc1cc(Nc2ccccc2C(=O)O)cc(C(F)(F)F)c1
[d] O=C(NCCCn1ccnc1)c1cc2nc(-c3ccccc3)cc(-c3ccccc3)n2n1
Order the entries by their reported pKi, beginning at the minimum. Would you mind listing the labels in the order asked for?
c, d, a, b
(c: 4.80, d: 5.45, a: 5.90, b: 6.42)

[I] CC(Nc1ccccc1-c1ccccc1)C1=NCCN1 (stereo not given)
[II] CO/C(O)=C1\C(C)=NC(C)=C(C(=O)NCCN2CCC(c3ccccc3)(c3ccccc3)CC2)C1c1ccc([N+](=O)[O-])cc1 (stereo not given)
Pick the one with the larger pKi: I vs II In your reply, give the label of the chosen option.
II
(II: 6.29, I: 5.94)

[I] COc1cc2c(cc1OC)CN(Cc1ccc(OC)c3oc(C(=O)N4CCC(N5CCCC5)CC4)cc13)CC2
[II] CC(=O)C1=C(C)NC(C)=C(C(=O)NCCCN2CCC(c3ccccc3)(c3ccccc3)CC2)C1c1ccc2c(c1)OCO2 (stereo not given)
[III] CC[C@H]1c2ccccc2[C@H]2C[C@]21c1c[nH]cn1 (relative stereo)
[IV] O=C1c2ccccc2C(=O)N1CC#Cc1ccc2c(c1)C=C([N+](=O)[O-])C(C(F)(F)F)O2 (stereo not given)
Rank descending by pKi. Would you mind listing the labels in the order asked for?
III, II, I, IV

[1] CC(Oc1ccccc1-c1ccccn1)C1=NCCN1 (stereo not given)
[2] CNC(=O)C1=C(C)NC(C)=C(C(=O)NCCCN2CCC(c3ccccc3)(c3ccccc3)CC2)C1c1ccc2c(c1)OCO2 (stereo not given)
Between 1 and 2 , which one has the lower reported pKi value? In your reply, give the label of the chosen option.
1
(1: 5.48, 2: 6.24)
